Each entry below carries its reported log10(Kd).
# Assayed system: T1, Tilelizumab
# T1 construct: Biotin-labelled in flow cytometry; also called Tevimbra; Tislelizumab
# Measurement protocol: SPR, Biacore T200; PD1-RFc mobile phase, antibody stationary phase
Base-10 log of Kd, unit nM.

Would you please look over these solved cases?
{"Binder": "Seq No.4-RFc (PD-1 variant SEQ ID NO: 4 fused to rabbit IgG Fc) (Fc fusion, Signal peptide 1-20 left out; also called variant 3; not shown: rabbit IgG Fc (RFc) of vector pcDNA3.4-RFc) PGWFLDSPDRPWNPPTFSPALLVVTEGDNATFTCSFSNTSESFVLNWYRMSPSNQTDKLAAFPWMFCFPGQDCRFRVTQLPNGRDFHMSVVRARRNDSGTYLCGAISLSTPVWIKESLRAELRVTERRAEVPTAH", "log10(Kd)": 0.47}
{"Binder": "Seq No.2-RFc (PD-1 variant SEQ ID NO: 2 fused to rabbit IgG Fc) (Fc fusion, signal peptide 1-20 left out; also called variant 1; not shown: rabbit IgG Fc (RFc) of vector pcDNA3.4-RFc) PGWFLDSPDRPWNPPTFSPALLVVTEGDNATFTCSFSNTSESFVLNWYRMSPSNQTDKLAAFPEDRSQPGQDCRFRVTQLPNGRDFHMSVVRARRNDSGTYLCGAISLSTPVWIKESLRAELRVTERRAEVPTAH", "log10(Kd)": -1.07}
{"Binder": "Seq No.3-RFc (PD-1 variant SEQ ID NO: 3 fused to rabbit IgG Fc) (Fc fusion, Signal peptide 1-20 left out; also called variant 2; not shown: rabbit IgG Fc (RFc) of vector pcDNA3.4-RFc) PGWFLDSPDRPWNPPTFSPALLVVTEGDNATFTCSFSNTSESFVLNWYRMSPSNQTDKLAAFPFLFNLPGQDCRFRVTQLPNGRDFHMSVVRARRNDSGTYLCGAISLSTPVWIKESLRAELRVTERRAEVPTAH", "log10(Kd)": 0.25}
{"Binder": "Seq No.7-RFc (PD-1 variant SEQ ID NO: 7 fused to rabbit IgG Fc) (Fc fusion, Signal peptide 1-20 left out; also called variant 6; not shown: rabbit IgG Fc (RFc) of vector pcDNA3.4-RFc) PGWFLDSPDRPWNPPTFSPALLVVTEGDNATFTCSFSNTSESFVLNWYRMSPSNQTDKLAAFPEDRINRSQDCRFRVTQLPNGRDFHMSVVRARRNDSGTYLCGAISLSTPVWIKESLRAELRVTERRAEVPTAH", "log10(Kd)": -1.31}

Lab note: next binder to report on.
Quick check: log10(Kd) of Seq No.6-RFc (PD-1 variant SEQ ID NO: 6 fused to rabbit IgG Fc) (Fc fusion, Signal peptide 1-20 left out; also called variant 5; 56#-16; not shown: rabbit IgG Fc (RFc) of vector pcDNA3.4-RFc) PGWFLDSPDRPWNPPTFSPALLVVTEGDNATFTCSFSNTSESFVLNWYRMSPSNQTDKLAAFPEDFFTVSQDCRFRVTQLPNGRDFHMSVVRARRNDSGTYLCGAISLSTPVWIKESLRAELRVTERRAEVPTAH ? -0.50
